// each record: one item and its IC50 for Ampc (UniProt P24735)
Give bare numbers, in nM.

Answered cases to consult:
NCCNC1CCC(CC(=O)N[C@H]2Cc3cccc(C(=O)O)c3OB2O)CC1 (some centres unmarked) [VNRX-5133, reference compound]; 857
CN1CC(CCSc2ccc3c(c2C(=O)O)OB(O)[C@@H]2C[C@H]32)C1 [Compound 24-a]; 63.8
CC(C)Sc1ccc2c(c1C(=O)O)OB(O)[C@@H]1C[C@H]21 [Compound 2]; 42.7
O=C(O)c1c(S[C@H]2CCOC2)ccc2c1OB(O)[C@@H]1C[C@H]21 [Compound 4]; 33.8

Continue with the next compound.
# input Entry under review: CSc1ccc2c(c1C(=O)O)OB(O)[C@@H]1C[C@H]21 [Compound 1] . Reported IC50?
# output 17.2

---

For each of the molecules below, state its MIC of biapenem in combination with compound, Escherichia coli ARLG-2829 NDM-5, OXA-1.
Tested on: Escherichia coli ARLG 2829
Assay: MIC test of compounds in combination with antibiotics, Escherichia coli ARLG 2829
Details: Biapenem + compound (8 μg/mL)
Numbers only, in µg/mL.

C[C@H](Sc1ccc2c(c1C(=O)O)OB(O)[C@@H]1C[C@H]21)C1CN(C)C1; 0.25

Continue with the next molecule.
# input Entry under review: CC(Sc1ccc2c(c1C(=O)O)OB(O)C1CC21)C1CC1 (single isomer, unassigned) [Compound 16-a] . Reported MIC of biapenem in combination with compound, Escherichia coli ARLG-2829 NDM-5, OXA-1?
# output 0.25

---

System: Acinetobacter baumannii ARLG-1791 OXA-23
Experiment: MIC test of compounds in combination with antibiotics, Acinetobacter baumannii ARLG-1791
Details: Biapenem + compound (8 μg/mL)
For each of the molecules below, state its MIC of biapenem in combination with compound, Acinetobacter baumannii ARLG-1791 OXA-23.
One number for each entry, in µg/mL.

Answered cases to consult:
NC1COCC1Sc1ccc2c(c1C(=O)O)OB(O)C1CC21 (single isomer, unassigned) [Compound 10_P1]; 0.5
NC1COCC1Sc1ccc2c(c1C(=O)O)OB(O)C1CC21 (single isomer, unassigned) [Compound 11_P2]; 0.25
NC1COCC1Sc1ccc2c(c1C(=O)O)OB(O)C1CC21 (single isomer, unassigned) [Compound 11_P1]; 0.25
C[C@H](Sc1ccc2c(c1C(=O)O)OB(O)[C@@H]1C[C@H]21)C1CN(C)C1; 0.25
CC(Sc1ccc2c(c1C(=O)O)OB(O)C1CC21)C1CC1 (single isomer, unassigned) [Compound 16-a]; 0.5

Provide reported MIC of biapenem in combination with compound, Acinetobacter baumannii ARLG-1791 OXA-23 for each item, in the same order as listed.
1. CC(Sc1ccc2c(c1C(=O)O)OB(O)C1CC21)C1CCOCC1 (single isomer, unassigned) [Compound 17-a]
2. CC(Sc1ccc2c(c1C(=O)O)OB(O)C1CC21)C1CCOCC1 (single isomer, unassigned) [Compound 17-b]
3. CC(Sc1ccc2c(c1C(=O)O)OB(O)C1CC21)C1CC1 (single isomer, unassigned) [Compound 16-d]

# output
1: 2; 2: 2; 3: 0.5

---

// each record: one item and its pIC50 for CTX-M-15 (Escherichia coli)
Numbers only, as −log10 of the molar value.

CC(C)Sc1ccc2c(c1C(=O)O)OB(O)[C@@H]1C[C@H]21; 8.49
CSc1ccc2c(c1C(=O)O)OB(O)[C@@H]1C[C@H]21; 8.89
CN1CC(CCSc2ccc3c(c2C(=O)O)OB(O)[C@@H]2C[C@H]32)C1; 8.51
NCCNC1CCC(CC(=O)N[C@H]2Cc3cccc(C(=O)O)c3OB2O)CC1 (some centres unmarked) [VNRX-5133, reference compound]; 7.91

# input Entry under review: "O=C(O)c1c(S[C@H]2CCOC2)ccc2c1OB(O)[C@@H]1C[C@H]21" . Reported pIC50?
# output 8.96

---

Biological target: OXA-23 (Acinetobacter baumannii)
Sequence (Q9L4P2 18-273): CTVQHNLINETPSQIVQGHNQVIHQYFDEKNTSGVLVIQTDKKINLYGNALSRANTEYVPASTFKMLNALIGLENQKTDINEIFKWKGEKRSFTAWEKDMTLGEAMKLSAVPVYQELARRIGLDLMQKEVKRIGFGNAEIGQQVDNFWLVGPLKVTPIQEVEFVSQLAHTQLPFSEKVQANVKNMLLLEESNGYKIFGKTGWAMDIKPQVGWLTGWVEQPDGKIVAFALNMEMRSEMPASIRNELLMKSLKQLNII
Property Measured: pIC50
One number for each entry, as −log10 of the molar value.

Answered cases to consult:
CN1CC(CCSc2ccc3c(c2C(=O)O)OB(O)[C@@H]2C[C@H]32)C1; 8.85
O=C(O)c1c(S[C@H]2CCOC2)ccc2c1OB(O)[C@@H]1C[C@H]21; 8.89
CSc1ccc2c(c1C(=O)O)OB(O)[C@@H]1C[C@H]21; 9.10

# input Entry under review: "CC(C)Sc1ccc2c(c1C(=O)O)OB(O)[C@@H]1C[C@H]21" . Reported pIC50?
# output 9.22

---

// each record: one item and its pIC50 for VIM-2 (Escherichia coli)
One number for each entry, as −log10 of the molar value.

Answered cases to consult:
NCCNC1CCC(CC(=O)N[C@H]2Cc3cccc(C(=O)O)c3OB2O)CC1 (stereo partly drawn) [VNRX-5133, reference compound]; 8.36
CC(C)Sc1ccc2c(c1C(=O)O)OB(O)[C@@H]1C[C@H]21; 10.00
CSc1ccc2c(c1C(=O)O)OB(O)[C@@H]1C[C@H]21; 10.00

Continue with the next compound.
# input Entry under review: "CN1CC(CCSc2ccc3c(c2C(=O)O)OB(O)[C@@H]2C[C@H]32)C1" . Reported pIC50?
# output 8.22

---

For each of the compounds below, state its pIC50.
Target: NDM-1 (Klebsiella pneumoniae, UniProt C7C422)
Construct: purchased GenScript Biotech Co., Ltd
Sequence (C7C422 29-270 limits assumed): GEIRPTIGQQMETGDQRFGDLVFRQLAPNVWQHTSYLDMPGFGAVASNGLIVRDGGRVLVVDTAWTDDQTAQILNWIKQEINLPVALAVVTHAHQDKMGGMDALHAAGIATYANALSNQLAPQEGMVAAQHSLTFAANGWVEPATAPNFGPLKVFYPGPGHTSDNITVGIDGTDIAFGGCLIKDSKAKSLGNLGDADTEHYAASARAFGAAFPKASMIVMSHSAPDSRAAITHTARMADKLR
Assay: Enzyme activity test (FC5 fluorescent substrate), NDM-1
Assay type: biochemical
Settings: enzyme 6 pM, substrate FC5 15 μM, MBL buffer
Numbers only, as −log10 of the molar value.

Provide reported pIC50 for each item, in the same order as listed.
1. O=C(O)c1c(S[C@H]2CCOC2)ccc2c1OB(O)[C@@H]1C[C@H]21
2. CN1CC(CCSc2ccc3c(c2C(=O)O)OB(O)[C@@H]2C[C@H]32)C1

# output
1. 8.72
2. 7.71

Provide reported pIC50 for each item, in the same order as listed.
1. CC(C)Sc1ccc2c(c1C(=O)O)OB(O)[C@@H]1C[C@H]21
2. CSc1ccc2c(c1C(=O)O)OB(O)[C@@H]1C[C@H]21

# output
1: 8.80; 2: 7.88

From: patent US20250223303A1
